Values from PubChem BioAssay AID2060493

Assign viability, T/C to each entry below.
- System: 616215-338-R-J1-PDC tumor spheroids, viability;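 further: spheroids exposed to agents for 7 days before readout; percent viability relative to DMSO vehicle control wells taken as 100%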
- experiment_notes: Anticancer human tumor 616215-338-R-J1-PDC patient-derived colon adenocarcinoma cell line growth inhibition [GQUAD]
- test_parameters: second compound 0.1 µM; first compound 0.1 µM; active compounds read low; spheroids with HUVEC and MSC
One number for each entry, in %.

COc1cc(C2c3cc4c(cc3C(OC3OC5COC(C)OC5C(O)C3O)C3COC(=O)C23)OCO4)cc(OC)c1O (configuration not stated) + CN(C)c1ccc(Nc2c3ccc(NC(=O)CCN4CCCC4)cc3nc3cc(NC(=O)CCN4CCCC4)ccc23)cc1 ... 107
CC(=O)O[C@H]1C(=O)[C@@]2(C)[C@H]([C@H](OC(=O)c3ccccc3)[C@]3(O)C[C@H](OC(=O)[C@H](O)[C@@H](NC(=O)c4ccccc4)c4ccccc4)C(C)=C1C3(C)C)[C@]1(OC(C)=O)CO[C@@H]1C[C@@H]2O + Cc1[nH]c2ccc(F)cc2c1-c1nc2c3cccnc3c3ncccc3c2[nH]1 ... 15.6
COc1cc(C2c3cc4c(cc3C(OC3OC5COC(C)OC5C(O)C3O)C3COC(=O)C23)OCO4)cc(OC)c1O (configuration not stated) + Cc1cnc(CNC(=O)c2c(=O)c3ccc(N4CCCN(C)CC4)nc3n3c2sc2ccccc23)cn1 ... 61
COc1cccc2c1C(=O)c1c(O)c3c(c(O)c1C2=O)CC(O)(C(=O)CO)CC3OC1CC(N)C(O)C(C)O1 (configuration not stated) + Cc1[nH]c2ccc(F)cc2c1-c1nc2c3cccnc3c3ncccc3c2[nH]1 ... 92.8
CCCS(=O)(=O)Nc1ccc(F)c(C(=O)c2c[nH]c3ncc(-c4ccc(Cl)cc4)cc23)c1F + CN(C)c1ccc(Nc2c3ccc(NC(=O)CCN4CCCC4)cc3nc3cc(NC(=O)CCN4CCCC4)ccc23)cc1 ... 92.6

For each entry beneath this line, provide reported viability, T/C.
1. COc1ncnc(C2CC2)c1-c1ncc2cnn(Cc3ccc(-c4nc(C(F)(F)F)cn4C(C)C)cc3)c2n1 + Cc1cnc(CNC(=O)c2c(=O)c3ccc(N4CCCN(C)CC4)nc3n3c2sc2ccccc23)cn1
2. CC1COCCN1c1cc(-c2ccnn2C)c2ccnc(-c3ccn[nH]3)c2n1 (configuration not stated) + CN(C)c1ccc(Nc2c3ccc(NC(=O)CCN4CCCC4)cc3nc3cc(NC(=O)CCN4CCCC4)ccc23)cc1
3. Cc1cccc(N(C)C(=O)C2C(O)CCN2c2nc(C)cc(C(F)(F)F)c2C#N)c1 (configuration not stated) + CN(C)c1ccc(Nc2c3ccc(NC(=O)CCN4CCCC4)cc3nc3cc(NC(=O)CCN4CCCC4)ccc23)cc1
4. CC(C)(O)C1CCC(Nc2ccc3ncc(-c4cccc(C(F)(F)F)c4)n3n2)CC1 (configuration not stated) + CN(C)c1ccc(Nc2c3ccc(NC(=O)CCN4CCCC4)cc3nc3cc(NC(=O)CCN4CCCC4)ccc23)cc1

[72.2, 58.5, 101, 104]

For each entry beneath this line, provide reported viability, T/C.
1. COc1ncnc(C2CC2)c1-c1ncc2cnn(Cc3ccc(-c4nc(C(F)(F)F)cn4C(C)C)cc3)c2n1 + CN(C)c1ccc(Nc2c3ccc(NC(=O)CCN4CCCC4)cc3nc3cc(NC(=O)CCN4CCCC4)ccc23)cc1
2. Nc1ccn(C2OC(CO)C(O)C2(F)F)c(=O)n1 (configuration not stated) + Cc1cnc(CNC(=O)c2c(=O)c3ccc(N4CCCN(C)CC4)nc3n3c2sc2ccccc23)cn1
3. CCCS(=O)(=O)Nc1ccc(F)c(C(=O)c2c[nH]c3ncc(-c4ccc(Cl)cc4)cc23)c1F + Cc1cnc(CNC(=O)c2c(=O)c3ccc(N4CCCN(C)CC4)nc3n3c2sc2ccccc23)cn1
4. C#Cc1c(F)ccc2cc(O)cc(-c3ncc4c(N5CC6CCC(C5)N6)nc(OCC56CCCN5CC(F)C6)nc4c3F)c12 (configuration not stated) + Cc1cnc(CNC(=O)c2c(=O)c3ccc(N4CCCN(C)CC4)nc3n3c2sc2ccccc23)cn1
5. O=C(NO)c1cnc(N2CCN(S(=O)(=O)c3ccc4ccccc4c3)CC2)nc1 + CN(C)c1ccc(Nc2c3ccc(NC(=O)CCN4CCCC4)cc3nc3cc(NC(=O)CCN4CCCC4)ccc23)cc1
6. CC(=O)O[C@H]1C(=O)[C@@]2(C)[C@H]([C@H](OC(=O)c3ccccc3)[C@]3(O)C[C@H](OC(=O)[C@H](O)[C@@H](NC(=O)c4ccccc4)c4ccccc4)C(C)=C1C3(C)C)[C@]1(OC(C)=O)CO[C@@H]1C[C@@H]2O + Cc1cnc(CNC(=O)c2c(=O)c3ccc(N4CCCN(C)CC4)nc3n3c2sc2ccccc23)cn1
7. O=c1[nH]cc(F)c(=O)[nH]1 + CN(C)c1ccc(Nc2c3ccc(NC(=O)CCN4CCCC4)cc3nc3cc(NC(=O)CCN4CCCC4)ccc23)cc1

1: 96.1; 2: 56.5; 3: 59; 4: 64.2; 5: 107; 6: 35.8; 7: 94.3

For the compound CC(=O)O[C@H]1C(=O)[C@@]2(C)[C@H]([C@H](OC(=O)c3ccccc3)[C@]3(O)C[C@H](OC(=O)[C@H](O)[C@@H](NC(=O)c4ccccc4)c4ccccc4)C(C)=C1C3(C)C)[C@]1(OC(C)=O)CO[C@@H]1C[C@@H]2O + CN(C)c1ccc(Nc2c3ccc(NC(=O)CCN4CCCC4)cc3nc3cc(NC(=O)CCN4CCCC4)ccc23)cc1 , what viability, T/C is on record?
19.5
